I'd appreciate it if you could supply pIC50 values for the items below.
System: MOLT-4
Test: Cancer cell line growth inhibition, CellTiter-Glo (Example 3)
Type: cell-based
Conditions: Homo sapiens, Leukemia, 72 hours, read-out: growth inhibition of various human cancer cell lines
Give bare numbers, as −log10 of the molar value.

Example entries begin here.
molecule	pIC50
Nc1ccccc1NC(=O)CCCCCCNC(=O)c1cc2ccccc2[nH]1 [YT128]	5.29
Nc1ccccc1NC(=O)CCCCCNC(=O)c1ccc(-c2ccccc2)o1 [YT88]	5.52

Then there is this molecule:
query: Give MOLT-4 pIC50 for Nc1ccccc1NC(=O)CCCCCNC(=O)c1cc2ccccc2[nH]1 [YT86]
result: 5.51

====

System: BT-549
Experiment: Cancer cell line growth inhibition, CellTiter-Glo (Example 3)
Format: cell-based
Conditions: Homo sapiens, Breast, 72 hours, read-out: growth inhibition of various human cancer cell lines
I'd appreciate it if you could supply IC50 values for the items below.
Please make sure the unit comes right after the number.

Example entries begin here.
smilesString	systemName	IC50
Nc1ccccc1NC(=O)CCCCCCNC(=O)c1cc2ccccc2[nH]1	BT-549	9.14 µM
Nc1ccccc1NC(=O)CCCCCNC(=O)c1ccc(-c2ccccc2)o1	BT-549	10.6 µM

query: Quick one: IC50 for `Nc1ccccc1NC(=O)CCCCCNC(=O)c1cc2ccccc2[nH]1` ?
result: 13.5 µM

====

Tested on: SR
Experiment: Cancer cell line growth inhibition, CellTiter-Glo (Example 3)
Type: cell-based
Conditions: Homo sapiens, Leukemia, 72 hours, read-out: IC50
endpointName: pIC50
Give bare numbers, as −log10 of the molar value.

query: Quick one: pIC50 for `Nc1ccccc1NC(=O)CCCCCC(=O)Nc1cccc(Br)c1` ?
result: 5.16

====

System: SNB-19
Test: Cancer cell line growth inhibition, CellTiter-Glo (Example 3)
Type: cell-based
Settings: Homo sapiens, CNS, 72 hours, read-out: growth inhibition of various human cancer cell lines
endpointName: pIC50
Answers are plain numbers, as −log10 of the molar value.

Example entries begin here.
compound	systemName	pIC50
Nc1ccccc1NC(=O)CCCCCNC(=O)c1cc2ccccc2[nH]1 [YT86]	SNB-19	4.85
Nc1ccccc1NC(=O)CCCCCCNC(=O)c1cc2ccccc2[nH]1 [YT128]	SNB-19	4.86

query: Quick one: pIC50 for Nc1ccccc1NC(=O)CCCCCNC(=O)c1ccc(-c2ccccc2)o1 [YT88] ?
result: 5.02

====

Test system: K-562
Experiment: Leukemia cell growth inhibition, CellTiter-Glo (Example 1)
Type: cell-based
Conditions: Homo sapiens, K562; K-562, CML; 72 hours
endpointName: IC50 (µM)
One number for each entry, in µM.

query: Give K-562 IC50 for `Nc1ccccc1NC(=O)CCCCCC(=O)Nc1cccc(Br)c1`
result: 1.82

====

Test system: U251
Test: Cancer cell line growth inhibition, CellTiter-Glo (Example 3)
Type: cell-based
Settings: Homo sapiens, U-251, CNS, 72 hours, read-out: IC50
Protocol: YT30 was tested for growth inhibition against 67 human cancer cell lines derived from diverse tissues including the National Cancer Institute human cancer cell lines (NCI-60). […] Cells in different wells were treated with various concentrations of YT30, YT86, YT88, or YT128. […] Cell viabilities were determined by the CellTiter-Glo Luminescence Cell Viability assay kit (Promega Corporation, Madison, Wis.) according to manufacturer's protocol.
endpointName: IC50 (µM)
Give bare numbers, in µM.

query: Quick one: IC50 for Nc1ccccc1NC(=O)CCCCCC(=O)Nc1cccc(Br)c1 [YT30] ?
result: 7.36

====

System: SF-539
Assay: Cancer cell line growth inhibition, CellTiter-Glo (Example 3)
Format: cell-based
Details: Homo sapiens, CNS, 72 hours, read-out: IC50
Method: YT30 was tested for growth inhibition against 67 human cancer cell lines derived from diverse tissues including the National Cancer Institute human cancer cell lines (NCI-60). […] Cells in different wells were treated with various concentrations of YT30, YT86, YT88, or YT128. […] Cell viabilities were determined by the CellTiter-Glo Luminescence Cell Viability assay kit (Promega Corporation, Madison, Wis.) according to manufacturer's protocol.
endpointName: IC50 (µM)
Answers are plain numbers, in µM.

query: Give SF-539 IC50 for `Nc1ccccc1NC(=O)CCCCCC(=O)Nc1cccc(Br)c1`
result: 10.8

====

System: Nalm-6
Assay: Leukemia cell growth inhibition, CellTiter-Glo (Example 1)
Type: cell-based, human
Details: Homo sapiens; NALM-6, ALL (B-cell); 72 hours
endpointName: IC50 (µM)
Numbers only, in µM.

query: Quick one: IC50 for `Nc1ccccc1NC(=O)CCCCCC(=O)Nc1cccc(Br)c1` ?
result: 2.36

====

System: A498
Test: Cancer cell line growth inhibition, CellTiter-Glo (Example 3)
Type: cell-based
Details: Homo sapiens, Renal, 72 hours, read-out: growth inhibition of various human cancer cell lines
endpointName: pIC50
One number for each entry, as −log10 of the molar value.

smilesString	pIC50
Nc1ccccc1NC(=O)CCCCCNC(=O)c1cc2ccccc2[nH]1	5.02
Nc1ccccc1NC(=O)CCCCCCNC(=O)c1cc2ccccc2[nH]1	5.13

query: Quick one: pIC50 for `Nc1ccccc1NC(=O)CCCCCNC(=O)c1ccc(-c2ccccc2)o1` ?
result: 5.02

====

Test system: MALME-3M
Assay: Cancer cell line growth inhibition, CellTiter-Glo (Example 3)
Assay type: cell-based
Conditions: Homo sapiens, Melanoma, 72 hours
endpointName: pIC50
Answers are plain numbers, as −log10 of the molar value.

query: Quick one: pIC50 for Nc1ccccc1NC(=O)CCCCCC(=O)Nc1cccc(Br)c1 [YT30] ?
result: 5.23

====

Test system: MDA-MB-435
Test: Cancer cell line growth inhibition, CellTiter-Glo (Example 3)
Format: cell-based
Conditions: Homo sapiens, Melanoma, 72 hours, read-out: IC50
endpointName: pIC50
Numbers only, as −log10 of the molar value.

query: Quick one: pIC50 for `Nc1ccccc1NC(=O)CCCCCC(=O)Nc1cccc(Br)c1` ?
result: 4.98

====

Test system: SK-OV-3
Test: Cancer cell line growth inhibition, CellTiter-Glo (Example 3)
Format: cell-based
Conditions: Homo sapiens, Ovary, 72 hours
endpointName: IC50 (µM)
Give bare numbers, in µM.

query: Quick one: IC50 for `Nc1ccccc1NC(=O)CCCCCC(=O)Nc1cccc(Br)c1` ?
result: 8.09

====

Test system: PC-3
Test: Cancer cell line growth inhibition, CellTiter-Glo (Example 3)
Assay type: cell-based
Details: Homo sapiens, Prostate, 72 hours
endpointName: pIC50
Numbers only, as −log10 of the molar value.

query: Quick one: pIC50 for `Nc1ccccc1NC(=O)CCCCCC(=O)Nc1cccc(Br)c1` ?
result: 5.01

====

System: RCH-ACV
Experiment: Leukemia cell growth inhibition, CellTiter-Glo (Example 1)
Type: cell-based
Details: Homo sapiens, ALL (B-cell), 72 hours
endpointName: pIC50
One number for each entry, as −log10 of the molar value.

query: Quick one: pIC50 for Nc1ccccc1NC(=O)CCCCCC(=O)Nc1cccc(Br)c1 [YT30] ?
result: 6.10

====

Test system: siHa
Test: Cancer cell line growth inhibition, CellTiter-Glo (Example 3)
Assay type: cell-based
Conditions: Homo sapiens, Cervical, 72 hours, read-out: growth inhibition of various human cancer cell lines
I'd appreciate it if you could supply IC50 values for the items below.
One number for each entry, in µM.

For each entry beneath this line, provide reported IC50.
1. Nc1ccccc1NC(=O)CCCCCCNC(=O)c1cc2ccccc2[nH]1
2. Nc1ccccc1NC(=O)CCCCCNC(=O)c1cc2ccccc2[nH]1

result:
9.7
8.78

query: Give siHa IC50 for `Nc1ccccc1NC(=O)CCCCCNC(=O)c1ccc(-c2ccccc2)o1`
result: 9.07

====

System: MDA-MB-435
Assay: Cancer cell line growth inhibition, CellTiter-Glo (Example 3)
Format: cell-based
Settings: Homo sapiens, Breast, 72 hours, read-out: growth inhibition of various human cancer cell lines
I'd appreciate it if you could supply IC50 values for the items below.
Give bare numbers, in µM.

Example entries begin here.
smilesString	unitOfMeasurement	testValue
Nc1ccccc1NC(=O)CCCCCCNC(=O)c1cc2ccccc2[nH]1	µM	9.74
Nc1ccccc1NC(=O)CCCCCNC(=O)c1cc2ccccc2[nH]1	µM	8.31

query: Quick one: IC50 for `Nc1ccccc1NC(=O)CCCCCNC(=O)c1ccc(-c2ccccc2)o1` ?
result: 7.59

====

Tested on: EKVX
Assay: Cancer cell line growth inhibition, CellTiter-Glo (Example 3)
Format: cell-based
Conditions: Homo sapiens, NSCLC, 72 hours
endpointName: pIC50
Answers are plain numbers, as −log10 of the molar value.

query: Quick one: pIC50 for Nc1ccccc1NC(=O)CCCCCC(=O)Nc1cccc(Br)c1 [YT30] ?
result: 5.34

====

Test system: SN12C
Assay: Cancer cell line growth inhibition, CellTiter-Glo (Example 3)
Type: cell-based
Details: Homo sapiens, Renal, 72 hours, read-out: IC50
endpointName: pIC50
One number for each entry, as −log10 of the molar value.

query: Give SN12C pIC50 for `Nc1ccccc1NC(=O)CCCCCC(=O)Nc1cccc(Br)c1`
result: 5.02
